measurement-description: Percentage unbound in mouse plasma
Type: ADME, cell-free
Here the recorded fraction unbound is given for each entry.

>  <query-smiles>
COC[C@H](C)NC(=O)c1nc(N2CC[C@@H](NC(=O)c3[nH]c(C)c(Cl)c3Cl)[C@@H](OC)C2)sc1C(=O)O

>  <fraction unbound>
0.047

$$$$
>  <query-smiles>
CO[C@H]1CN(c2nc(-c3ncccn3)c(C(=O)O)s2)CC[C@H]1NC(=O)c1[nH]c(C)c(Cl)c1Cl

>  <fraction unbound>
0.18

$$$$
>  <query-smiles>
COCCNC(=O)c1nc(N2CC[C@@H](NC(=O)c3[nH]c(C)c(Cl)c3Cl)[C@@H](OC)C2)sc1C(=O)O

>  <fraction unbound>
0.0585

$$$$
>  <query-smiles>
COCC(COC)NC(=O)c1nc(N2CC[C@@H](NC(=O)c3[nH]c(C)c(Cl)c3Cl)[C@@H](OC)C2)sc1C(=O)O

>  <fraction unbound>
0.042

$$$$
>  <query-smiles>
CO[C@H]1CN(c2nc(-c3cnccn3)c(C(=O)O)s2)CC[C@H]1NC(=O)c1[nH]c(C)c(Cl)c1Cl

>  <fraction unbound>
0.074

$$$$
>  <query-smiles>
Cc1[nH]c(C(=O)NC2CCN(c3ncc(C(=O)O)s3)CC2)c(Cl)c1Cl

>  <fraction unbound>
0.089

$$$$
>  <query-smiles>
CO[C@H]1CN(c2nc(-c3ncnn3C)c(C(=O)O)s2)CC[C@H]1NC(=O)c1[nH]c(C)c(Cl)c1Cl

>  <fraction unbound>
0.097

$$$$

----------
Here the recorded MIC is given for each entry.
System: Moraxella catarrhalis
measurement-description: Antimicrobial activity against Moraxella catarrhalis by broth microdilution/CLSI method
Type: functional
condition-context: Moraxella catarrhalis; read-out: MIC

>  <compound>
CO[C@H]1CN(c2ncc(C(=O)O)s2)CC[C@@H]1NC(=O)c1[nH]c(C)c(Cl)c1Cl

>  <unit-info>
µg/mL

>  <sign>
=

>  <MIC>
64

$$$$
>  <compound>
CO[C@H]1CN(c2nc(C(=O)NCCN3CCOCC3)c(C(=O)O)s2)CC[C@H]1NC(=O)c1[nH]c(C)c(Cl)c1Cl

>  <unit-info>
µg/mL

>  <sign>
=

>  <MIC>
0.031

$$$$
>  <compound>
Cc1[nH]c(C(=O)N[C@@H]2CCN(c3ncc(C(=O)O)s3)CC23OCCCO3)c(Cl)c1Cl

>  <unit-info>
µg/mL

>  <sign>
=

>  <MIC>
0.13

$$$$
>  <compound>
Cc1[nH]c(C(=O)N[C@@H]2CCN(c3ncc(C(=O)O)s3)C[C@@H]2F)c(Cl)c1Cl

>  <unit-info>
µg/mL

>  <sign>
=

>  <MIC>
0.046

$$$$
>  <compound>
CO[C@H]1CN(c2nc(-c3nccs3)c(C(=O)O)s2)CC[C@H]1NC(=O)c1[nH]c(C)c(Cl)c1Cl

>  <unit-info>
µg/mL

>  <sign>
<

>  <MIC>
0.06

$$$$
>  <compound>
Cc1[nH]c(C(=O)N[C@@H]2CCN(c3ncc(C(=O)O)s3)C[C@@H]2O)c(Cl)c1Cl (racemic)

>  <unit-info>
µg/mL

>  <sign>
=

>  <MIC>
4

$$$$
>  <compound>
COCC(COC)NC(=O)c1nc(N2CC[C@@H](NC(=O)c3[nH]c(C)c(Cl)c3Cl)[C@@H](OC)C2)sc1C(=O)O

>  <unit-info>
µg/mL

>  <sign>
<

>  <MIC>
0.008

$$$$
>  <compound>
CO[C@H]1CN(c2nc(C(=O)NC3COC(C)(C)OC3)c(C(=O)O)s2)CC[C@H]1NC(=O)c1[nH]c(C)c(Cl)c1Cl

>  <unit-info>
µg/mL

>  <sign>
=

>  <MIC>
0.008

$$$$
>  <compound>
CO[C@H]1CN(c2nc(-c3ccn[nH]3)c(C(=O)O)s2)CC[C@H]1NC(=O)c1[nH]c(C)c(Cl)c1Cl

>  <unit-info>
µg/mL

>  <sign>
<

>  <MIC>
0.06

$$$$
>  <compound>
CO[C@H]1CN(c2nc(C(=O)O)cs2)CC[C@H]1NC(=O)c1[nH]c(C)c(Cl)c1Cl

>  <unit-info>
µg/mL

>  <sign>
=

>  <MIC>
0.05

$$$$
>  <compound>
CO[C@H]1CN(c2nc(C(=O)O)c(C)s2)CC[C@H]1NC(=O)c1[nH]c(C)c(Cl)c1Cl

>  <unit-info>
µg/mL

>  <sign>
=

>  <MIC>
0.063

$$$$
>  <compound>
CNC(=O)c1nc(N2CC[C@@H](NC(=O)c3[nH]c(C)c(Cl)c3Cl)[C@@H](OC)C2)sc1C(=O)O

>  <unit-info>
µg/mL

>  <sign>
=

>  <MIC>
0.011

$$$$
>  <compound>
CO[C@H]1CN(c2nc(C(N)=O)c(C(=O)O)s2)CC[C@H]1NC(=O)c1[nH]c(C)c(Cl)c1Cl

>  <unit-info>
µg/mL

>  <sign>
=

>  <MIC>
0.02

$$$$
>  <compound>
CO[C@H]1CO[C@@]2(CN(c3ncc(C(=O)O)s3)CC[C@H]2NC(=O)c2[nH]c(C)c(Cl)c2Cl)OC1 (relative stereo)

>  <unit-info>
µg/mL

>  <sign>
=

>  <MIC>
1

$$$$
>  <compound>
CO[C@@H]1CN(c2ncc(C(=O)O)s2)CC[C@@H]1NC(=O)c1[nH]c(C)c(Cl)c1Cl

>  <unit-info>
µg/mL

>  <sign>
=

>  <MIC>
2

$$$$
>  <compound>
CO[C@H]1CN(c2nc(CN3CCOCC3)c(C(=O)O)s2)CC[C@H]1NC(=O)c1[nH]c(C)c(Cl)c1Cl (racemic)

>  <unit-info>
µg/mL

>  <sign>
=

>  <MIC>
1

$$$$

----------
measurement-description: Solubility of the compound
Type: physicochemical

>  <compound>
CO[C@H]1CN(c2nc(-c3cnccn3)c(C(=O)O)s2)CC[C@H]1NC(=O)c1[nH]c(C)c(Cl)c1Cl

>  <sign>
=

>  <solubility, µM>
540

$$$$
>  <compound>
Cc1[nH]c(C(=O)N[C@@H]2CCN(c3ncc(C(=O)O)s3)CC23OCC2(CC2)CO3)c(Cl)c1Cl

>  <sign>
>

>  <solubility, µM>
1000

$$$$
>  <compound>
CO[C@H]1CN(c2nc(C(N)=O)c(C(=O)O)s2)CC[C@H]1NC(=O)c1[nH]c(C)c(Cl)c1Cl

>  <sign>
=

>  <solubility, µM>
280

$$$$
>  <compound>
CO[C@H]1CN(c2nc(C(=O)NN3CCOCC3)c(C(=O)O)s2)CC[C@H]1NC(=O)c1[nH]c(C)c(Cl)c1Cl

>  <sign>
>

>  <solubility, µM>
1000

$$$$
>  <compound>
CO[C@H]1CO[C@@]2(CN(c3ncc(C(=O)O)s3)CC[C@H]2NC(=O)c2[nH]c(C)c(Cl)c2Cl)OC1 (relative stereo)

>  <sign>
>

>  <solubility, µM>
1000

$$$$
>  <compound>
CO[C@H]1CN(c2nc(C(=O)NCC3OCCO3)c(C(=O)O)s2)CC[C@H]1NC(=O)c1[nH]c(C)c(Cl)c1Cl

>  <sign>
=

>  <solubility, µM>
940

$$$$
>  <compound>
CO[C@H]1CN(c2nc(-c3ncnn3C)c(C(=O)O)s2)CC[C@H]1NC(=O)c1[nH]c(C)c(Cl)c1Cl

>  <sign>
=

>  <solubility, µM>
630

$$$$
>  <compound>
Cc1[nH]c(C(=O)N[C@@H]2CCN(c3ncc(C(=O)O)s3)CC23OCC(C)(C)CO3)c(Cl)c1Cl

>  <sign>
>

>  <solubility, µM>
1000

$$$$

----------
Here the recorded log10 of MIC is given for each entry.
System: Escherichia coli
measurement-description: Antimicrobial activity against Escherichia coli tolC- by broth microdilution/CLSI method
Type: functional
condition-context: Escherichia coli; read-out: MIC
value-type: log10 of MIC (log10 of the value in µg/mL)

>  <compound>
Cc1[nH]c(C(=O)N[C@@H]2CCN(c3ncc(C(=O)O)s3)CC23OCCO3)c(Cl)c1Cl

>  <log10 of MIC>
0.00

$$$$
>  <compound>
COC[C@H]1CN(c2ncc(C(=O)O)s2)CC[C@H]1NC(=O)c1[nH]c(C)c(Cl)c1Cl (racemic)

>  <log10 of MIC>
0.00

$$$$
>  <compound>
CO[C@H]1CN(c2nc(C(F)F)c(C(=O)O)s2)CC[C@H]1NC(=O)c1[nH]c(C)c(Cl)c1Cl

>  <log10 of MIC>
-0.30

$$$$
>  <compound>
CO[C@H]1CO[C@]2(CN(c3ncc(C(=O)O)s3)CC[C@H]2NC(=O)c2[nH]c(C)c(Cl)c2Cl)OC1 (relative stereo)

>  <log10 of MIC>
0.00

$$$$
>  <compound>
CO[C@H]1CN(c2nc(-c3ccccn3)c(C(=O)O)s2)CC[C@H]1NC(=O)c1[nH]c(C)c(Cl)c1Cl

>  <log10 of MIC>
-0.89

$$$$
>  <compound>
CO[C@H]1CN(c2nc(C(=O)NCCN3CCCC3=O)c(C(=O)O)s2)CC[C@H]1NC(=O)c1[nH]c(C)c(Cl)c1Cl

>  <log10 of MIC>
-0.15

$$$$
>  <compound>
CO[C@H]1CN(c2nc(-c3nc(C)no3)c(C(=O)O)s2)CC[C@H]1NC(=O)c1[nH]c(C)c(Cl)c1Cl

>  <log10 of MIC>
-0.30

$$$$
>  <compound>
CO[C@H]1CN(c2nc(C(=O)O)cs2)CC[C@H]1NC(=O)c1[nH]c(C)c(Cl)c1Cl

>  <log10 of MIC>
-1.00

$$$$
>  <compound>
Cc1[nH]c(C(=O)NC2CCN(c3ncc(C(=O)O)s3)CC2)c(Cl)c1Cl

>  <log10 of MIC>
-0.66

$$$$
>  <compound>
C=CCO[C@H]1CN(c2ncc(C(=O)O)s2)CC[C@H]1NC(=O)c1[nH]c(C)c(Cl)c1Cl (racemic)

>  <log10 of MIC>
-0.89

$$$$
>  <compound>
COC[C@H](C)NC(=O)c1nc(N2CC[C@@H](NC(=O)c3[nH]c(C)c(Cl)c3Cl)[C@@H](OC)C2)sc1C(=O)O

>  <log10 of MIC>
-0.03

$$$$
>  <compound>
CO[C@H]1CN(c2nc(C(=O)NCC3OCCO3)c(C(=O)O)s2)CC[C@H]1NC(=O)c1[nH]c(C)c(Cl)c1Cl

>  <log10 of MIC>
-0.10

$$$$
>  <compound>
COCC(COC)NC(=O)c1nc(N2CC[C@@H](NC(=O)c3[nH]c(C)c(Cl)c3Cl)[C@@H](OC)C2)sc1C(=O)O

>  <log10 of MIC>
0.11

$$$$
>  <compound>
CO[C@H]1CN(c2nc(-c3cncnc3)c(C(=O)O)s2)CC[C@H]1NC(=O)c1[nH]c(C)c(Cl)c1Cl

>  <log10 of MIC>
-0.10

$$$$

The measurements presented in this section are drawn from ChEMBL document CHEMBL3352173.
